The following variants are listed with their measured self-cleavage values.
B1: CPEB3 Ribozyme (parent)
chain: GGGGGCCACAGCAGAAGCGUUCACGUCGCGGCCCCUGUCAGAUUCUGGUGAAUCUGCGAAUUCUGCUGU

Variants of: B1
measurementProtocol: self-cleavage, relative activity (ratio to wild type); higher = more cleavage; co-transcriptional
Answer field: number only, no words.

alteration: C34A U67C
self-cleavage: 0.938
//
alteration: G11U U21C
self-cleavage: 0.541
//
alteration: U53A C54U
self-cleavage: 0.882
//
alteration: U55A C57A
self-cleavage: 0.34
//
alteration: C22A A59C
self-cleavage: 0.192

Now for a further variant.
Consider C9G C33A . Its measured self-cleavage is 1.03

Ref: the RNAGym collection of RNA variant scans (doi:10.7554/elife.80360)
